The measurements presented in this section are drawn from the MegaScale stability set (Tsuboyama et al. 2023).

B1: EEHEE_rd4_0363 (parent)
chain: VTVDIKGMEYHFDNPEEAKKFAERMAKELGGELKVENGTLKVE

variants of: B1; experiment: folding stability dG (cDNA display proteolysis); higher = more stable; details: PBS, room temperature
OBSERVED_PROPERTY: folding stability dG (kcal/mol)
Unit kcal/mol implied. Number only.

Answered cases to consult:
VTVDIKGMEYHFDNPEEMKKFAERMAKELGGELKVENGTLKVE [A18M]
0.379
VTVDIKGMEYHFQNPEEAKKFAERMAKELGGELKVENGTLKVE [D13Q]
1.73
VTVDIKGMEYHMDNPEEAKKFAERMAKELGGELKVENGTLKVE [F12M]
0.11
VTVDIKGMEYHFDNPEEAKKFAERMAKELGGELKVEDGTLKVE [N37D]
1.63
VTVDIKGMEYHFDNPQEAKKFAERMAKELGGELKVENGTLKVE [E16Q]
1.67

[in] Would you mind telling me what folding stability dG value was observed for VTVDIKGMEYHFDNPEELKKFAERMAKELGGELKVENGTLKVE [A18L] ?
[out] 0.471

[in] Fill in the blank: the reported folding stability dG of VTVDIKGMEYHFDNPEEAKKFAERMAKELWGELKVENGTLKVE [G30W] is ____.
[out] 1.17

[in] Requested read-out: folding stability dG. Entry: VTVDIKGMEYHFDNPEEAKKFAERHAKELGGELKVENGTLKVE [M25H]
[out] 0.844

[in] Item under review: VTVDIKGMEYHFDNPEEAKKFDERMAKELGGELKVENGTLKVE [A22D] . Reported folding stability dG?
[out] -0.23

[in] What value of folding stability dG has been reported for the following variant? VTVDIKGMEYHFDNPEEAKKFKERMAKELGGELKVENGTLKVE [A22K]
[out] 0.798

[in] What value of folding stability dG has been recorded for this entry: VTVDIKGMEYHFDNPGEAKKFAERMAKELGGELKVENGTLKVE [E16G]
[out] 1.24

[in] Name the recorded folding stability dG for VTVDIKGMEYHFDNPEEAKKFAERMAKELGGELKMENGTLKVE [V35M] .
[out] 2

[in] What folding stability dG value was documented for this variant, VTHDIKGMEYHFDNPEEAKKFAERMAKELGGELKVENGTLKVE [V3H] ?
[out] -0.104
